I'd appreciate it if you could supply EC50 values for the items below.
- measured-target: hGLP-1R (Homo sapiens)
- Sequence (P43220 24-463): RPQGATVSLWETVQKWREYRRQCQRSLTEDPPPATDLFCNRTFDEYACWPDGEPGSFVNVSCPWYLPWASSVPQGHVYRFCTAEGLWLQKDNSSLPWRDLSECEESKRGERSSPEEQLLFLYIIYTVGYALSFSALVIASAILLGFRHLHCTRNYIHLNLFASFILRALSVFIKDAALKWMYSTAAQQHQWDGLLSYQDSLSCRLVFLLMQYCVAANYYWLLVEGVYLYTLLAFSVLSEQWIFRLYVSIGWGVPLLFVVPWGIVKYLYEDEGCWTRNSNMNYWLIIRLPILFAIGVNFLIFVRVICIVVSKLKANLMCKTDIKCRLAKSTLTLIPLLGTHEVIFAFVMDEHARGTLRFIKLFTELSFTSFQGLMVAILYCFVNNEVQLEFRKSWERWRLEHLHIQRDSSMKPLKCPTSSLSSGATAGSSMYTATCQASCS
- assay-remarks: Functional cAMP activity in the presence of 1% HSA
- Type: cell-based
- assay-setup: read-out: cAMP Rel EC50, hGLP-1R
Starred links: 1 amine or outer side, 2 acyl side, 3 side chain; linkers in the order of their positions; H or OH if unused. Non-standard residues stand in square brackets, D forms with d. Groups on a side chain read outwards from the residue. *: point of attachment. C18 diacid = O=C(O)CCCCCCCCCCCCCCCCC(=O)*; αMePhe(2-F) = C[C@](N)(Cc1ccccc1F)C(=O)O; γGlu = O=C(O)[C@H](CCC(=O)[*:2])N[*:1]; αMeY = C[C@](N)(Cc1ccc(O)cc1)C(=O)O; 4Pal = N[C@@H](Cc1ccncc1)C(=O)O; αMeL = CC(C)C[C@](C)(N)C(=O)O; αMeS = C[C@](N)(CO)C(=O)O; Orn = NCCC[C@H](N)C(=O)O; AEEA = NCCOCCOCC(=O)O; Aib = CC(C)(N)C(=O)O
Report as a plain number; the unit nM is understood.

Give the value of EC50 reported for the following: H-Y[Aib]QGT[αMePhe(2-F)]TSD[4Pal]SILLDKK([γGlu-γGlu-C18 diacid])AQ[Aib]AFIEYLEEGGPSSGAPPPSGGGE-NH2 [Example 619]
94

Give the value of EC50 reported for the following: H-Y[Aib]QGTFTSDFS[Orn][αMeL]LDKK([AEEA-γGlu-C18 diacid])AQ[Aib]AFIEYLLEGG[4Pal]SSGAPPPGGS-NH2 [Example 163]
762

Give the value of EC50 reported for the following: H-Y[Aib]QGT[αMePhe(2-F)]TSD[4Pal][αMeS]I[αMeL]LD[Orn]K([AEEA-γGlu-C18 diacid])AA[Aib]EFI[dE][αMeY]LLEGGPSSGAPPPSGS-NH2 [Example 672]
49.4
